Assay: enzyme activity assay at 23° C. with purified enzyme
Format: biochemical
Conditions: wild-type set at 100%
For each entry below, report its maximum activity as a percentage of the wild-type enzyme's activity, Dichlorprop value.
One number for each entry, in %.

Molecule	Reported value
MON-HT4: engineered oxygenase protein, amino acid sequence SEQ ID NO:25 (protein) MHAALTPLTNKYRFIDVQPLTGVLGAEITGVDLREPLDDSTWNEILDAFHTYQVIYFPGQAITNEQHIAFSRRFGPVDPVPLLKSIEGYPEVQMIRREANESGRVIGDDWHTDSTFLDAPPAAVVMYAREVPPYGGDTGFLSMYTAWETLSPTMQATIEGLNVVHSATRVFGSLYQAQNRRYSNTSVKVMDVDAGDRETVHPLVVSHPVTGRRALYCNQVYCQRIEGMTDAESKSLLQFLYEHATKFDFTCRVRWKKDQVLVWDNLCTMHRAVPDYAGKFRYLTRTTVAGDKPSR	39
MON-HT55: engineered oxygenase protein, amino acid sequence SEQ ID NO:11 (protein) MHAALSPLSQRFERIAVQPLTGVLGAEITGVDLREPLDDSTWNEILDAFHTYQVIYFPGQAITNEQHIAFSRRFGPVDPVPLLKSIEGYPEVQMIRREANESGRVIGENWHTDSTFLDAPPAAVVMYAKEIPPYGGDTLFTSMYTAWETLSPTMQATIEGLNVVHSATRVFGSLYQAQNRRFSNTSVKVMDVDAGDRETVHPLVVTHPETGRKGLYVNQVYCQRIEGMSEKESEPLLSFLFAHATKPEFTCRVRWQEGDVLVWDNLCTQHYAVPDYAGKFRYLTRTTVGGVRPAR	31
MON-HT10: engineered oxygenase protein, amino acid sequence SEQ ID NO:43 (protein) MHAALTPLTNKYRFIDVQPLCGVLGAEITGVDLREPLDDSTWNEILDAFHTYQVIYFPGQAITNEQHIAFSRRFGPVDPVPLLKSIEGYPEVQMIRREANESGRILGDDWHTDSTFLDAPPAAVVMRAIEVPEYGGDTGFLSMYSAWDTLSDTMKATIEGLNVVHSATRVFGSLYQAQNWRFSNTSVKVMDVDAGDRETVHPLVVSHPVTGRRALYCNQVYCQRIEGMTDAESKCLLQFLYEHATKFDFTCRVRWKKDQVLVWDNLCTMHLAVPDYDGKFRYLTRTTVAGDKPSR	29

Now look at this one.
Ask: For the molecule MON-HT5: engineered oxygenase protein, amino acid sequence SEQ ID NO:28 (protein) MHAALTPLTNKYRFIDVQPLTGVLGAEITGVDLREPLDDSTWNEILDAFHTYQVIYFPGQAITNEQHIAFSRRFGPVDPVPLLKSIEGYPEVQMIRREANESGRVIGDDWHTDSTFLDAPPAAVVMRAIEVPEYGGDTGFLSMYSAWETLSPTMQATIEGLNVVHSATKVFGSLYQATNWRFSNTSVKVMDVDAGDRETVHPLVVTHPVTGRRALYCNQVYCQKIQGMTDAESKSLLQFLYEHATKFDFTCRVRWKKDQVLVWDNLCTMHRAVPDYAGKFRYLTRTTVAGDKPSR , report maximum activity as a percentage of the wild-type enzyme's activity, Dichlorprop.
Result: 36
